Assay: melting temperature; fluorescence melt of hairpins on a sequencing array, two-state fit, raised by 9.35 °C to match UV melts
Settings: sodium 0.088 M
Here, each record is paired with measured Tm data.
Numeric only. Scale: °C

Illustrative cases are given below, each with its answer.
GTAGTGGGAAACCGCTAC ((((.((....)).))))    51.5
GTGCGTGGAAACATGCGC (.((.((....)).)).)    49.5
GTCACACGAAAGTGGAC (((.(((....))))))    48.6
GGTTGCGAAAGCAGACC ((((((....))).)))    51
GCGGCAGCGAAAGCTCGC (((..(((....))))))    51.5
GCGTCATCACGC ((((....))))    50.4

Shift focus to the following entry.
Input GGTGCCGAAAGGCCCACC ((((((....)))..))) . Output Tm: 50.6

---

Assay: folding enthalpy; higher = less favourable; fluorescence melt of hairpins on a sequencing array, two-state fit
Conditions: sodium 0.088 M
Tag: YES if measured folding enthalpy is not below -20 kcal/mol, NO if it is.

CGTACGGAAACGTATACG ((((((....)))..)))    YES
GCTAGGGGAAACCCTAGC (((((((....)))))))    NO
GTGCTCGGAAACAAGCAC (((((.(....).)))))    NO
GCTGTTTCGAAAGAAAGC (((..(((....))))))    YES
GATCCAAGCTGGATC ((((((...))))))    NO

Prompt: Is it the case that GCACAGCGAAAGCATTGC (((..((....))..))) has folding enthalpy reaching or exceeding -20 kcal/mol?
Response: YES

Prompt: Is it the case that GGAGCCGGAAACGGCTTC (.(((((....))))).) has folding enthalpy reaching or exceeding -20 kcal/mol?
Response: YES

Prompt: Is it the case that GATCGCGAAAGCGTCATC ((((((....)))..))) has folding enthalpy reaching or exceeding -20 kcal/mol?
Response: YES

Prompt: Is it the case that GAATTCGGAAACGAGTTC (((.(((....))).))) has folding enthalpy reaching or exceeding -20 kcal/mol?
Response: NO

Prompt: Is it the case that GCGTTCGGAAACGAGTGC ((..(((....)))..)) has folding enthalpy reaching or exceeding -20 kcal/mol?
Response: NO

---

Assay: folding enthalpy; higher = less favourable; fluorescence melt of hairpins on a sequencing array, two-state fit
Details: sodium 0.088 M
Measurement kind: folding enthalpy (kcal/mol)
Numeric only. Scale: kcal/mol

Illustrative cases are given below, each with its answer.
GCCGCGCGAAAGCCCCGC ((.(.((....)).).))    -7.57
GCTGAAGGAAACTTCAGC (((((((....)))))))    -41.1
GTACACGAAAGTGATAC ((((((....))).)))    -17.1
GGTTTCCGAAAGGAACC (((.(((....))))))    -19.8
GCGTGGCGAAAGCGGCGC (((..((....))..)))    -40.4

Input GATCAAGGCTTTGATC ((((((....)))))) . Output folding enthalpy: -42

Input GCCGCGCGAAAGCTCAGC ((.(.((....)).).)) . Output folding enthalpy: -10.8

Input GATCTTCGAAAAGATC ((((((....)))))) . Output folding enthalpy: -24.9

Input GCTCTCGAAAGAGTTAGC ((((((....)))..))) . Output folding enthalpy: -21.8

Input GTGCGAACGAAAGTTCAC (((..(((....)))))) . Output folding enthalpy: -12.1

Input GGGGAACGAAAGTTGCCC (((.(((....))).))) . Output folding enthalpy: -39.1

Input GTTCGCGAAAGCGGGAAC ((((((....)))..))) . Output folding enthalpy: -11.8

Input GTCCCCGGAAACGGGGGC (.(((((....))))).) . Output folding enthalpy: -19.5

Input CGGGACGGAAACGTACCG (((.(((....))).))) . Output folding enthalpy: -42.1

Input GTGTTACGAAAGTAGCAC (((.(((....))).))) . Output folding enthalpy: -35.7

Input GCTCAGACGAAAGTCAGC (((..(((....)))))) . Output folding enthalpy: -15.5

Input GGGCTGGGAAACCGGTCC ((.(.((....)).).)) . Output folding enthalpy: -44.6

Input GATTCGCGAAAGCGGATC (((.(((....))).))) . Output folding enthalpy: -27.7

Input GGCAAGCCGAAAGGCGCC (((..(((....)))))) . Output folding enthalpy: -14.4

Input GCAGTGCGAAAGCACCGC ((.((((....)))).)) . Output folding enthalpy: -17.4

Input GTCAACGGAAACGTTGGC (.(((((....))))).) . Output folding enthalpy: -32.5

Input GAATCCGAAAGGAAATTC ((((((....)))..))) . Output folding enthalpy: -15.5

---

Test: melting temperature; fluorescence melt of hairpins on a sequencing array, two-state fit, raised by 9.35 °C to match UV melts
Conditions: sodium 0.088 M
Here, each record is paired with measured Tm data.
Numeric only. Scale: °C

Illustrative cases are given below, each with its answer.
GCAGACGAAAGTCTGTGC ((((((....)))..)))    61.3
GAGCGTGGAAACGCGCTC (((((.(....).)))))    66.7
GACGAGGGAAACCTCATC ((.((((....)))).))    31.2
GTGCACGAAAGTGAACAC ((((((....)))..)))    52
GCCGACGGAAACGTTGGC (((.(((....))).)))    63.9

Input GCGTGTGGAAACGCATGC ((.((.(....).)).)) . Output Tm: 47.4

Input GGTTCGCGAAAGCGACC (((.(((....)))))) . Output Tm: 61.7

Input GCCTAGCGAAAGCCAGGC ((((.((....)).)))) . Output Tm: 62.2

Input GATCCATTTTGGATC ((((((...)))))) . Output Tm: 53.6

Input GCGGTGCGAAAGCCACGC (((..((....))..))) . Output Tm: 61.5

Input GATAGCCGAAAGGCGATC (((.(((....))).))) . Output Tm: 58.8

Input GGACATGAAAATGTCC ((((((....)))))) . Output Tm: 61.7

Input GCGGCTGTCCGC ((((....)))) . Output Tm: 57.9

Input GTAAGCGAAAGCTCGTAC ((((((....)))..))) . Output Tm: 24.2

Input GTACTCGAAAGAGCTTAC ((((((....)))..))) . Output Tm: 27.6

Input GCTTTGCGAAAGCAAGGC ((.((((....)))).)) . Output Tm: 62.1

Input GCGGCTCCCCGC ((((....)))) . Output Tm: 54.8

Input GCTCAGCGAAAGCTAGGC ((..(((....)))..)) . Output Tm: 44.5

Input GCGACGCGAAAGCGCGGC ((..(((....)))..)) . Output Tm: 55.7

Input GCTTACGAAAGTACAGC ((((((....))).))) . Output Tm: 41.4

Input GATCGGCGGGCCGATC ((((((....)))))) . Output Tm: 66.9

Input GCGTCTTCGAAAGAACGC (((..(((....)))))) . Output Tm: 46.6

Input GACTTGGGAAACCAGGTC (((.(((....))).))) . Output Tm: 46.4

Input GTCCCGCGAAAGCGTGAC (((.(((....))).))) . Output Tm: 52.9

Input GCCGCCGAAAGGCTGGC ((((((....))).))) . Output Tm: 69.2

---

Test: folding enthalpy; higher = less favourable; fluorescence melt of hairpins on a sequencing array, two-state fit
Conditions: sodium 0.088 M
Tag: MET if measured folding enthalpy is not below -30 kcal/mol, NOT MET if it is.

Worked examples, 8 sequences total:
GATCCCCATGGGATC ((((((...))))))    NOT MET
GGGGACGGAAACGTCTCC ((.((((....)))).))    MET
GCCATTGGAAACAGTGGC ((((.((....)).))))    NOT MET
GAAAATGAAAATTTTC ((((((....))))))    MET
CTCAGGAAACTGAG (((((....)))))    MET
GCGATCTATCGC ((((....))))    NOT MET
GTTGACCCGAAAGGGAAC (((..(((....))))))    MET
GAGTGTGGAAACATACTC ((((.((....)).))))    NOT MET

Prompt: Is it the case that GCTGCCGAAAGGCCAAGC ((((((....)))..))) has folding enthalpy reaching or exceeding -30 kcal/mol?
Response: MET

Prompt: Is it the case that GTTGGGGAAACCCAAC ((((((....)))))) has folding enthalpy reaching or exceeding -30 kcal/mol?
Response: NOT MET

Prompt: Is it the case that GCACTGCGAAAGCTTTGC (((..((....))..))) has folding enthalpy reaching or exceeding -30 kcal/mol?
Response: MET

Prompt: Is it the case that GCTTGAGGAAACTCAGGC ((.((((....)))).)) has folding enthalpy reaching or exceeding -30 kcal/mol?
Response: NOT MET

Prompt: Is it the case that GCGCGTCGAAAGACACGC (((.(((....))).))) has folding enthalpy reaching or exceeding -30 kcal/mol?
Response: NOT MET

Prompt: Is it the case that GGGAGTGCGAAAGCACCC (((..(((....)))))) has folding enthalpy reaching or exceeding -30 kcal/mol?
Response: MET

Prompt: Is it the case that GCTGTCTCGAAAGAGAGC (((..(((....)))))) has folding enthalpy reaching or exceeding -30 kcal/mol?
Response: MET

Prompt: Is it the case that GCTTCTGGAAACGGAAGC (((((.(....).))))) has folding enthalpy reaching or exceeding -30 kcal/mol?
Response: NOT MET

Prompt: Is it the case that GTTGTCGAAAGACGAAAC ((((((....)))..))) has folding enthalpy reaching or exceeding -30 kcal/mol?
Response: MET

Prompt: Is it the case that GGCTGCGAAAGCAAGGCC ((((((....)))..))) has folding enthalpy reaching or exceeding -30 kcal/mol?
Response: MET

Prompt: Is it the case that GCTTAGGGAAACCTAAGC (((((((....))))))) has folding enthalpy reaching or exceeding -30 kcal/mol?
Response: NOT MET

Prompt: Is it the case that AAGGGGAAACCCTT (((((....))))) has folding enthalpy reaching or exceeding -30 kcal/mol?
Response: MET

Prompt: Is it the case that GTAGGCGGAAACGCTTGC (.(.(((....))).).) has folding enthalpy reaching or exceeding -30 kcal/mol?
Response: MET

Prompt: Is it the case that GGGTGCGGAAACGTGCCC (((..((....))..))) has folding enthalpy reaching or exceeding -30 kcal/mol?
Response: NOT MET

Prompt: Is it the case that GATCAGGGCACTGATC ((((((....)))))) has folding enthalpy reaching or exceeding -30 kcal/mol?
Response: NOT MET
